For each of the compounds below, state its Σ log K i ^H (i = 1–5).
Test: Ligand protonation constants by pH-potentiometric titration
Format: physicochemical
Conditions: sum of literature protonation constants of related ligands
Answers are plain numbers.

Past entries and their recorded results:
O=C(O)CN(CCN(CC(=O)O)Cc1cccc(C(=O)O)n1)Cc1cccc(C(=O)O)n1: 22.20
O=C(O)CN(Cc1cccc(C(=O)O)n1)[C@@H]1CCCC[C@@H]1N(CC(=O)O)Cc1cccc(C(=O)O)n1: 24.04
O=C(O)CN(CCN(CC(=O)O)CC(=O)O)CC(=O)O: 21.27

*Q* Given O=C(O)CN(CC(=O)O)[C@@H]1CCCC[C@H]1N(CC(=O)O)CC(=O)O (relative stereo) , state its recorded Σ log K i ^H (i = 1–5).
*A* 22.99

###

For each of the compounds below, state its pLa.
Assay: Stability constants of La^3+ complexes by pH potentiometry
Format: physicochemical
Details: −log[La^3+]free for [L] = 10 μM and [La^3+] = 1 μM at pH 7.4 and 25 °C; from literature constants

O=C(O)CN1CCN(CC(=O)O)CCN(Cc2cccc(C(=O)O)n2)CCN(CC(=O)O)CC1: 16.6
O=C(O)CN(CCN(CC(=O)O)Cc1cccc(C(=O)O)n1)Cc1cccc(C(=O)O)n1: 19.7
O=C(O)c1cccc(CN2CCOCCOCCN(Cc3cccc(C(=O)O)n3)CCOCCOCC2)n1: 15.6

Consider the additional compound presented here.
*Q* Given "O=C(O)CN(Cc1cccc(C(=O)O)n1)[C@@H]1CCCC[C@@H]1N(CC(=O)O)Cc1cccc(C(=O)O)n1" , state its recorded pLa.
*A* 16.6
